- measuredOn: T1, human recombinant GIP receptor (human, UniProt P48546 22-466)
- T1 construct: whole, on cells; Membranes of CHO-K1 cells expressing the receptor; also called hGIP receptor
- T1 sequence (looked up): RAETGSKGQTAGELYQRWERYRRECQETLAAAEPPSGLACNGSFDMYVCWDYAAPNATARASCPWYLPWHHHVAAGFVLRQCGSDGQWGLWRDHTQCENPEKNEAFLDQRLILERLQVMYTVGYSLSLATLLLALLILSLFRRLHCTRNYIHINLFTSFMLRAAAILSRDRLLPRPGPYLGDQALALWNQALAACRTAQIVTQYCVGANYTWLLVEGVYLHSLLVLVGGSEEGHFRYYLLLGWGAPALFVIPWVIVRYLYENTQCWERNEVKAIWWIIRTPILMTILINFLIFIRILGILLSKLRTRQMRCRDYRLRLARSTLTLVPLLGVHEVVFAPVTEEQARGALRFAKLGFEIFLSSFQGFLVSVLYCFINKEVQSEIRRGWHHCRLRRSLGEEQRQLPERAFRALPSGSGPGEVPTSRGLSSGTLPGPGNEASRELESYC
- methodDescription: [125I]GIP competition, membranes of CHO-K1 cells expressing human GIP receptor
# if measured Ki < 20 nM: Y  # else: N

# binder, label
measured = [
    ("YXEGTFXSDYSIAXDKIHQQDFVNWLLAQKGKKNDWKHNITQ (Aib at 2; A6c at 7 and 14; C-terminal free acid) [(Aib^2, A6c^7, 14)hGIP(1-42)-OH]", "Y"),
    ("YXEGTFISDYXIAMDKIHQQDFVNWLLAQKGKKNDWKHNITQ (Aib at 2; A5c at 11; C-terminal free acid) [(Aib^2, A5c^11)hGIP(1-42)-OH]", "Y"),
    ("YXPGTFXSDYSIAMDKIHQQDFVNWLLAQK (Aib at 2; A6c at 7; C-terminal amide) [(Aib^2, Pro^3, A6c^7)hGIP(1-30)-NH2]", "N"),
    ("YXEGTFIXDYSIAMDKIHQQDFVNWLLAQKGKKNDWKHNITQ (Aib at 2 and 8; C-terminal free acid) [(Aib^2, 8)hGIP(1-42)-OH]", "Y"),
    ("YAXGTFISDYSIXXDKIHQQDFVNWLLAQKGKKNDWKHNITQ (Dhp at 3; Aib at 13; Nle at 14; C-terminal free acid) [(Dhp^3, Aib^13, Nle^14)hGIP(1-42)-OH]", "N"),
    ("YXEGTFXSDYSIAXDKIHQQDFVNWLLAQK (Aib at 2; A5c at 7 and 14; C-terminal amide) [(Aib^2, A5c^7, 14)hGIP(1-30)-NH2]", "Y"),
]
